B1: Cytoplasmic polyadenylation element-binding protein 2, residues 513 to 575; numbered along this chain, Q7Z5Q1 (parent)
chain: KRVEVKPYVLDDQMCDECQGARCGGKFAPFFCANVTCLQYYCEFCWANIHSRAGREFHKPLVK

# Variants of: B1
# Measurement protocol: abundance fitness (aPCA) (normalised: wild type 0, dead -1); higher = more abundant; growth selection in yeast, the domain comes from the species named
# Protocol conditions: Homo sapiens
Attribute measured: abundance fitness

INSERT INTO measurements (residue_sequence, attribute_measured, endpoint_result) VALUES
  ('KRVEVKPYVLDDQMCDECQGARCGGKHAPFFCANVTCLQYYCEFCWANIHSRAGREFHKPLVK', 'abundance fitness', -0.08),
  ('KRVEVKPYVLDDQMCDECQGARCGGKNAPFFCANVTCLQYYCEFCWANIHSRAGREFHKPLVK', 'abundance fitness', -0.099),
  ('KRVEVKPYVLDDQMCDECQGARCGGKFAPFFCANVMCLQYYCEFCWANIHSRAGREFHKPLVK', 'abundance fitness', -0.095),
  ('KRVEVKNYVLDDQMCDECQGARCGGKFAPFFCANVTCLQYYCEFCWANIHSRAGREFHKPLVK', 'abundance fitness', 0.01),
  ('KRVEVKPYVLDDQMCDECQGARCGGKFAPFFCANVTCLQYYCEFCWANIHSRLGREFHKPLVK', 'abundance fitness', -0.092),
  ('KRVEVKPYVLDDQMCDECQGARCGGKFAPFFCANVTCLQYYCEFCWANIHSRAGSEFHKPLVK', 'abundance fitness', -0.041),
  ('KRVEVKPYVLDDQMCDECQGARCGGKFAPFFCANVTCLQYPCEFCWANIHSRAGREFHKPLVK', 'abundance fitness', -0.734),
  ('KRVEVKPYVLDDQMCDECQGARCGGKFAPFFCANVTCLQYYCEFCWAGIHSRAGREFHKPLVK', 'abundance fitness', 0.074),
  ('KRVEVKPYVLDDQMCDECQKARCGGKFAPFFCANVTCLQYYCEFCWANIHSRAGREFHKPLVK', 'abundance fitness', -0.403),
  ('KRVEVKPYVLDDQMCDECQGARCGGKFAPFFCANVTCLQYYCEFCWANIHSRIGREFHKPLVK', 'abundance fitness', -0.079);
